Values compiled from patent US20150015931A1.

This listing pairs compounds with measured Absorbance at wavelength, at 5 micron thickness.
procedureDetails: Absorbance of the saturated dye solution at 5 micron thickness (Beer-Lambert law, UV-vis)
Assay type: physicochemical
conditionDetails: in decane; at the wavelength printed in the row; Table 5
reportedEndpoint: Absorbance at wavelength, at 5 micron thickness

>>> df
                                   compound  result
0  Cc1ccc(C)c(N=Nc2cc(C)c(N=Nc3c(O)ccc4ccccc34)cc2C)c1 [Oil Red O, reference compound]  0.2594
1  CCCCNc1ccc(NCCCC)c2c1C(=O)c1ccccc1C2=O [Solvent Blue 35, reference compound]   0.044
2  Cc1ccccc1/N=N/c1ccc(/N=N/c2c(O)ccc3ccccc23)c(C)c1 [Solvent Red 24, reference compound]  0.1579
3  CCCCCNc1ccc(NCCCCC)c2c1C(=O)c1ccccc1C2=O [Oil Blue N, reference compound]   0.114
4  CCCCCCCCN(CCCCCCCC)c1ccc(/N=N/c2ccc([N+](=O)[O-])cc2)c(C)c1 [Dye 15]   2.765
